Ref: patent US9801901B2

system: V11 5702 (Wales) E. coli; experiment: MIC assay, CAMHB with alginate oligomer, no visible growth; type: cell-based; settings: Table 5; V11 MDR E.coli; OligoCF-5/20 +6% G
Marks after values point to notes of the source that are not given here.
Listing of recorded MIC by entry.
observation.type: MIC

[
  {
    "compound": "C[C@@H](O)[C@H]1C(=O)N2C(C(=O)O)=C(S[C@@H]3CN[C@H](C(=O)N(C)C)C3)[C@H](C)[C@H]12 [Meropenem]",
    "reported.measurement": "<0.25 µg/mL"
  },
  {
    "compound": "CC1(C)C[C@@H]1C(=O)N/C(=C\\CCCCSC[C@H](N)C(=O)O)C(=O)O [Primaxin, Imipenem/cilastatin]",
    "reported.measurement": "<0.5 µg/mL"
  },
  {
    "compound": "CN(C)[C@@H]1C(O)=C(C(N)=O)C(=O)[C@@]2(O)C(O)=C3C(=O)c4c(O)cccc4[C@@](C)(O)[C@H]3[C@H](O)[C@@H]12 [Oxytetracycline]",
    "reported.measurement": "0.5 µg/mL"
  },
  {
    "compound": "C[C@H]1[C@H](NC(=O)/C(=N\\OC(C)(C)C(=O)O)c2csc(N)n2)C(=O)N1S(=O)(=O)O [Aztreonam]",
    "reported.measurement": "256 µg/mL"
  },
  {
    "compound": "CC(C)(O/N=C(\\C(=O)N[C@@H]1C(=O)N2C(C(=O)[O-])=C(C[n+]3ccccc3)CS[C@H]12)c1csc(N)n1)C(=O)O [Ceftazidime]",
    "reported.measurement": "32^† μg/ml"
  },
  {
    "compound": "CC[C@H]1OC(=O)[C@H](C)[C@@H](O[C@H]2C[C@@](C)(OC)[C@@H](O)[C@H](C)O2)[C@H](C)[C@@H](O[C@@H]2O[C@H](C)C[C@H](N(C)C)[C@H]2O)[C@](C)(O)C[C@@H](C)CN(C)[C@H](C)[C@@H](O)[C@]1(C)O [Azithromycin]",
    "reported.measurement": "16^† μg/ml"
  }
]

###

system: V19 non MDR Acinetobacter baumannii; assay: MIC assay, CAMHB with M-block alginate oligomer, no visible growth; type: cell-based; conditions: Table 7, V19 non MDR Acin. baum, M-block oligomer +6% M
Listing of recorded MIC by entry.

[
  {
    "compound": "C[C@H]1[C@H](NC(=O)/C(=N\\OC(C)(C)C(=O)O)c2csc(N)n2)C(=O)N1S(=O)(=O)O [Aztreonam]",
    "MIC [µg/mL]": 8
  },
  {
    "compound": "CC[C@H]1OC(=O)[C@H](C)[C@@H](O[C@H]2C[C@@](C)(OC)[C@@H](O)[C@H](C)O2)[C@H](C)[C@@H](O[C@@H]2O[C@H](C)C[C@H](N(C)C)[C@H]2O)[C@](C)(O)C[C@@H](C)CN(C)[C@H](C)[C@@H](O)[C@]1(C)O [Azithromycin]",
    "MIC [µg/mL]": 16
  },
  {
    "compound": "O=C(O)c1cn(C2CC2)c2cc(N3CCNCC3)c(F)cc2c1=O [Ciprofloxacin]",
    "MIC [µg/mL]": 16
  },
  {
    "compound": "C[C@@H](O)[C@H]1C(=O)N2C(C(=O)O)=C(S[C@@H]3CN[C@H](C(=O)N(C)C)C3)[C@H](C)[C@H]12 [Meropenem]",
    "MIC [µg/mL]": 2
  }
]

###

test system: Acinetobacter lwoffii (Egypt, V10); assay: MIC-assay, Mueller-Hinton broth with G-block alginate, 384-well, OD600; details: Table 9, G-block (OligoCF-5/20) 10%

[
  {
    "compound": "CC[C@H]1OC(=O)[C@H](C)[C@@H](O[C@H]2C[C@@](C)(OC)[C@@H](O)[C@H](C)O2)[C@H](C)[C@@H](O[C@@H]2O[C@H](C)C[C@H](N(C)C)[C@H]2O)[C@](C)(O)C[C@@H](C)/C(=N\\OCOCCOC)[C@H](C)[C@@H](O)[C@]1(C)O [Roxithromycin]",
    "MIC": "< 1 µg/mL"
  },
  {
    "compound": "CC(C)(O/N=C(\\C(=O)N[C@@H]1C(=O)N2C(C(=O)[O-])=C(C[n+]3ccccc3)CS[C@H]12)c1csc(N)n1)C(=O)O [Ceftazidime]",
    "MIC": "0.25 µg/mL"
  },
  {
    "compound": "CC[C@H]1OC(=O)[C@H](C)[C@@H](O[C@H]2C[C@@](C)(OC)[C@@H](O)[C@H](C)O2)[C@H](C)[C@@H](O[C@@H]2O[C@H](C)C[C@H](N(C)C)[C@H]2O)[C@](C)(O)C[C@@H](C)[C@@H]2N[C@@H](COCCOC)O[C@H]([C@H]2C)[C@]1(C)O [Dirithromycin]",
    "MIC": "< 1 µg/mL"
  }
]

###

system: Pseudomonas aeruginosa ATCC 39324, mucoid type strain (R79); assay: MIC assay, CAMHB with alginate oligomer, no visible growth; format: cell-based; conditions: Pseudomonas aeruginosa, ATCC39324, Table 1; R79; OligoCF-5/20 +6% G; read-out: MIC
Listing of recorded MIC by entry.

[
  {
    "smiles.representation": "CC(C)(O/N=C(\\C(=O)N[C@@H]1C(=O)N2C(C(=O)[O-])=C(C[n+]3ccccc3)CS[C@H]12)c1csc(N)n1)C(=O)O",
    "MIC": "< 1 µg/mL"
  },
  {
    "smiles.representation": "CC[C@H]1OC(=O)[C@H](C)[C@@H](O[C@H]2C[C@@](C)(OC)[C@@H](O)[C@H](C)O2)[C@H](C)[C@@H](O[C@@H]2O[C@H](C)C[C@H](N(C)C)[C@H]2O)[C@](C)(O)C[C@@H](C)CN(C)[C@H](C)[C@@H](O)[C@]1(C)O",
    "MIC": "16 µg/mL"
  },
  {
    "smiles.representation": "C[C@@H](O)[C@H]1C(=O)N2C(C(=O)O)=C(S[C@@H]3CN[C@H](C(=O)N(C)C)C3)[C@H](C)[C@H]12",
    "MIC": "< 1 µg/mL"
  }
]

###

Listing of recorded MIC by entry.
test system: Staphylococcus aureus (MRSA) U50; test: MIC-assay, Mueller-Hinton broth with G-block alginate, 384-well, OD600 (Table 12); assay type: cell-based; settings: MRSA 1040s, U50 MDR, G-block (OligoCF-5/20) 0%, read-out: MIC

[
  {
    "molecule": "CC(C)(O/N=C(\\C(=O)N[C@@H]1C(=O)N2C(C(=O)[O-])=C(C[n+]3ccccc3)CS[C@H]12)c1csc(N)n1)C(=O)O [Ceftazidime]",
    "reading.qualifier": ">",
    "MIC [µg/mL]": 16
  },
  {
    "molecule": "CC[C@H]1OC(=O)[C@H](C)[C@@H](O[C@H]2C[C@@](C)(OC)[C@@H](O)[C@H](C)O2)[C@H](C)[C@@H](O[C@@H]2O[C@H](C)C[C@H](N(C)C)[C@H]2O)[C@](C)(O)C[C@@H](C)C(=O)[C@H](C)[C@@H](O)[C@]1(C)O [Erythromycin]",
    "reading.qualifier": ">",
    "MIC [µg/mL]": 1020
  },
  {
    "molecule": "O=C(O)c1cn(C2CC2)c2cc(N3CCNCC3)c(F)cc2c1=O [Ciprofloxacin]",
    "reading.qualifier": "=",
    "MIC [µg/mL]": 32
  },
  {
    "molecule": "CN(C)[C@@H]1C(O)=C(C(N)=O)C(=O)[C@@]2(O)C(O)=C3C(=O)c4c(O)cccc4[C@@](C)(O)[C@H]3[C@H](O)[C@@H]12 [Oxytetracycline]",
    "reading.qualifier": "=",
    "MIC [µg/mL]": 2
  },
  {
    "molecule": "C[C@H]1[C@H](NC(=O)/C(=N\\OC(C)(C)C(=O)O)c2csc(N)n2)C(=O)N1S(=O)(=O)O [Aztreonam]",
    "reading.qualifier": "=",
    "MIC [µg/mL]": 1020
  },
  {
    "molecule": "C[C@@H](O)[C@H]1C(=O)N2C(C(=O)O)=C(SCCN=CN)C[C@H]12 [Imipenem]",
    "reading.qualifier": "=",
    "MIC [µg/mL]": 0.0625
  },
  {
    "molecule": "CC[C@H]1OC(=O)[C@H](C)[C@@H](O[C@H]2C[C@@](C)(OC)[C@@H](O)[C@H](C)O2)[C@H](C)[C@@H](O[C@@H]2O[C@H](C)C[C@H](N(C)C)[C@H]2O)[C@](C)(O)C[C@@H](C)[C@@H]2N[C@@H](COCCOC)O[C@H]([C@H]2C)[C@]1(C)O [Dirithromycin]",
    "reading.qualifier": "=",
    "MIC [µg/mL]": 1020
  },
  {
    "molecule": "CC[C@H]1OC(=O)[C@H](C)[C@@H](O[C@H]2C[C@@](C)(OC)[C@@H](O)[C@H](C)O2)[C@H](C)[C@@H](O[C@@H]2O[C@H](C)C[C@H](N(C)C)[C@H]2O)[C@](C)(O)C[C@@H](C)/C(=N\\OCOCCOC)[C@H](C)[C@@H](O)[C@]1(C)O [Roxithromycin]",
    "reading.qualifier": ">",
    "MIC [µg/mL]": 1020
  }
]
